# System: T-cell
# test description: Stimulation of INFgamma production in M17.29 ELA1 T cells at 10 uM by flow cytometry
# Type: functional, Homo sapiens

# smiles repr, Activity
records = [
    ("CC[C@H](C)[C@H](NC(=O)CNC(=O)CN(CCNC(=O)[C@H](C)NC(=O)[C@H](CC(C)C)NC(=O)[C@@H](N)CCC(=O)O)Cc1ccc([N+](=O)[O-])cc1)C(=O)N[C@@H](CC(C)C)C(=O)N[C@H](C(=O)N[C@H](C(=O)O)C(C)C)[C@@H](C)O", "0%"),
    ("CC[C@H](C)[C@H](NC(=O)CNC(=O)CN(CCNC(=O)[C@H](C)NC(=O)[C@H](CC(C)C)NC(=O)[C@@H](N)CCC(=O)O)Cc1ccc(O)cc1)C(=O)N[C@@H](CC(C)C)C(=O)N[C@H](C(=O)N[C@H](C(=O)O)C(C)C)[C@@H](C)O", "0%"),
    ("CC[C@H](C)[C@H](NC(=O)CNC(=O)[C@H](Cc1ccc(O)cc1)NC(=O)CNC(=O)[C@H](C)NC(=O)[C@H](CC(C)C)NC(=O)[C@@H](N)CCC(=O)O)C(=O)N[C@@H](CC(C)C)C(=O)N[C@H](C(=O)N[C@H](C(=O)O)C(C)C)[C@@H](C)O", "32%"),
    ("CC[C@H](C)[C@H](NC(=O)CNC(=O)[C@H](Cc1c[nH]c2ccccc12)NC(=O)CNC(=O)[C@H](C)NC(=O)[C@H](CC(C)C)NC(=O)[C@@H](N)CCC(=O)O)C(=O)N[C@@H](CC(C)C)C(=O)N[C@H](C(=O)N[C@H](C(=O)O)C(C)C)[C@@H](C)O", "55%"),
    ("CC[C@H](C)[C@H](NC(=O)CNC(=O)CN(CCNC(=O)[C@H](C)NC(=O)[C@H](CC(C)C)NC(=O)[C@@H](N)CCC(=O)O)Cc1ccnc2ccccc12)C(=O)N[C@@H](CC(C)C)C(=O)N[C@H](C(=O)N[C@H](C(=O)O)C(C)C)[C@@H](C)O", "0%"),
    ("CC[C@H](C)[C@H](NC(=O)CNC(=O)[C@H](Cc1ccccc1)NC(=O)CNC(=O)[C@H](C)NC(=O)[C@H](CC(C)C)NC(=O)[C@@H](N)CCC(=O)O)C(=O)N[C@@H](CC(C)C)C(=O)N[C@H](C(=O)N[C@H](C(=O)O)C(C)C)[C@@H](C)O", "48%"),
]

###

# Organism: Homo sapiens
# test description: Binding affinity to HLA-A2 in TAP-deficient HLA-A2+T2 cells assessed as fluorescence intensity relative to ELA
*1 amine or outer side, *2 acyl side, *3 side chain or, on linkers, in order; H or OH if unused. Where a SMILES comes first, the peptide text is derived from it. [ ]: non-standard residue; d: D form. X2 = O=C([C@@H]1Cc2c([nH]c3ccccc23)CN1CCN[*:1])[*:2]; X4 = O=C([C@@H]1Cc2ccccc2CN1CCN[*:1])[*:2]; 3Amb = NCc1cccc(C(=O)O)c1; βAla = NCCC(=O)O
// values below are reported Ratio
property label: Ratio

# molecule, numeric value
rows = [
    ("CC(C)C[C@H](NC(=O)CCN)C(=O)N[C@@H](C)C(=O)NCCN1Cc2ccccc2C[C@H]1C(=O)NCc1cccc(C(=O)N[C@@H](CC(C)C)C(=O)N[C@H](C(=O)N[C@H](C(=O)O)C(C)C)[C@@H](C)O)c1 (H-[βAla]LA[X4][3Amb]LTV-OH)", 0.64),
    ("CC[C@H](C)[C@H](NC(=O)CNC(=O)CN(CCNC(=O)[C@H](C)NC(=O)[C@H](CC(C)C)NC(=O)[C@@H](N)CCC(=O)O)CC1CCCCC1)C(=O)N[C@@H](CC(C)C)C(=O)N[C@H](C(=O)N[C@H](C(=O)O)C(C)C)[C@@H](C)O", 0.86),
    ("CC(C)C[C@H](NC(=O)CCN)C(=O)N[C@@H](C)C(=O)NCCN1Cc2[nH]c3ccccc3c2C[C@H]1C(=O)NCc1cccc(C(=O)N[C@@H](CC(C)C)C(=O)N[C@H](C(=O)N[C@H](C(=O)O)C(C)C)[C@@H](C)O)c1 (H-[βAla]LA[X2][3Amb]LTV-OH)", 0.81),
    ("CC[C@H](C)[C@H](NCCNC(=O)[C@H](Cc1c[nH]c2ccccc12)NCCNC(=O)[C@H](C)NC(=O)[C@H](CC(C)C)NC(=O)[C@@H](N)CCC(=O)O)C(=O)N[C@@H](CC(C)C)C(=O)N[C@H](C(=O)N[C@H](C(=O)O)C(C)C)[C@@H](C)O", 1.61),
]
